molecular target: protein kinases (panel of Table 4) (Homo sapiens, UniProt P28482)
Sequence (P28482 whole entry): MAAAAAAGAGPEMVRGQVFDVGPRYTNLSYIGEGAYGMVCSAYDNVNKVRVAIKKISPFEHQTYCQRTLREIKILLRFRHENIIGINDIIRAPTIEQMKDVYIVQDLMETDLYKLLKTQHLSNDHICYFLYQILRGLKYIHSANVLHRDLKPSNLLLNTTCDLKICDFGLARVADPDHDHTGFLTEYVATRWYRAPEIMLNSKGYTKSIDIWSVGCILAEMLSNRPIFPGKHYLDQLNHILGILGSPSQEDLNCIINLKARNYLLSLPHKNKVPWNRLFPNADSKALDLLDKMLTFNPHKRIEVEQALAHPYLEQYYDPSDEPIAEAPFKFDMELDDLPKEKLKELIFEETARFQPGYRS
pIC50: −log10 of the molar value.

molecule	study.system	pIC50
CCNc1nc(C)c(-c2ccnc(Nc3ccc(N4CCNCC4)cc3)n2)s1 [Compound 59]	protein kinases (panel of Table 4) (Homo sapiens, UniProt P28482)	< 5.00
CNc1nc(C)c(-c2ccnc(Nc3cccc(S(C)(=O)=O)c3)n2)s1 [Compound 27]	protein kinases (panel of Table 4) (Homo sapiens, UniProt P28482)	< 5.00
COCCNS(=O)(=O)c1cccc(Nc2nccc(-c3sc(N)nc3C)n2)c1 [Compound 55]	protein kinases (panel of Table 4) (Homo sapiens, UniProt P28482)	< 5.00

The measured values listed here are drawn from patent US20090137572A1.
